- target.entity: Sodium-dependent dopamine transporter (Rattus norvegicus, UniProt P23977)
- Sequence (P23977 whole entry): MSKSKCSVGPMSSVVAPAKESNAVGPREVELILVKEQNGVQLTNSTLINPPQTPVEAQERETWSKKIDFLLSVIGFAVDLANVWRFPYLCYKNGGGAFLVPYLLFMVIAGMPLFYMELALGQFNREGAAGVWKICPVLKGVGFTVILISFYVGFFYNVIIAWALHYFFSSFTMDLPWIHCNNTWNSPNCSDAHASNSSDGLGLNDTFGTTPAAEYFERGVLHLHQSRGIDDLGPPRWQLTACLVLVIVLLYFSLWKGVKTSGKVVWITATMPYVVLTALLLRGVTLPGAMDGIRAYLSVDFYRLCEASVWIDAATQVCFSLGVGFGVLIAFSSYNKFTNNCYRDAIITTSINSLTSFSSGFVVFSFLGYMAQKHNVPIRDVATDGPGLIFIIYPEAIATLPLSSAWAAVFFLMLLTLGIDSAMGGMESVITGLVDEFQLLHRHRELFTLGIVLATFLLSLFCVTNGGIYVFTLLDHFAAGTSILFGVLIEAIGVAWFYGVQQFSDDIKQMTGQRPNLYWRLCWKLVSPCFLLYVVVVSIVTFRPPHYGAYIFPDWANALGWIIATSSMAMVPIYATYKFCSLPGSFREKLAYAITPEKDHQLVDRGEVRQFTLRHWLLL
experimental.endpoint: IC50 (nM)

{"molecule": "COC(=O)C1C2CCC(C[C@@H]1c1cc[c]([Sn]([CH3])([CH3])[CH3])cc1)N2C (stereo partly specified)", "recorded.number": 144}
